Molecular target: HLA-A*24 (human)
Test: UV-exchange ELISA, exchange yield grade
Assay Endpoint: peptide exchange yield

Past entries and their recorded results:
Binder	Assay Endpoint	Recorded Measurement
RYILENHDF [… (SEQ ID NO: 263)]	peptide exchange yield	50 to 75%
QYILAVPVL [… (SEQ ID NO: 99)]	peptide exchange yield	> 75%
LYSPVPFTL [… (SEQ ID NO: 175)]	peptide exchange yield	50 to 75%

Would you kindly share the measured peptide exchange yield for AYLPPLQQVF [… (SEQ ID NO: 382)] ?
50 to 75%

Would you kindly share the measured peptide exchange yield for SYVKVLHHL [… (SEQ ID NO: 241)] ?
50 to 75%

Would you kindly share the measured peptide exchange yield for IYSVGAFENF [… (SEQ ID NO: 184)] ?
> 75%

Would you kindly share the measured peptide exchange yield for KYLQVVGMF [… (SEQ ID NO: 180)] ?
50 to 75%

Would you kindly share the measured peptide exchange yield for PYFFANQEF [… (SEQ ID NO: 224)] ?
50 to 75%

Would you kindly share the measured peptide exchange yield for RYGLPAAWSTF [… (SEQ ID NO: 121)] ?
50 to 75%
